Test system: Salmonella typhimurium
Experiment: In vitro antibacterial activity against the Salmonella Typhimurium
Format: functional, Salmonella enterica subsp. enterica serovar Typhimurium
Details: Salmonella enterica
property-label: MIC (µg/mL)
Output spec: scalar in µg/mL, unitless text.

Looking up CO/N=C1\CN(c2c(F)cc3c(=O)c(C(=O)O)cn(C4CC4)c3c2F)CC1(C)CN.Cl (stereo not drawn) , I found its MIC recorded as 0.025

Looking up CO/N=C1\CN(c2nc3c(cc2F)c(=O)c(C(=O)O)cn3C2CC2)CC1CN (stereo not drawn) , I found its MIC recorded as 0.004

Looking up CO/N=C1\CN(c2cc3c(cc2F)c(=O)c(C(=O)O)cn3C2CC2)CC1(C)CN.Cl (stereo not drawn) , I found its MIC recorded as 0.013

Looking up `CO/N=C1\CN(c2nc3c(cc2F)c(=O)c(C(=O)O)cn3C2CC2)C[C@@]1(C)CN.Cl` , I found its MIC recorded as 0.013

Looking up `CO/N=C1\CN(c2nc3c(cc2F)c(=O)c(C(=O)O)cn3C2CC2)C[C@]1(C)CN.Cl` , I found its MIC recorded as 0.013

---

Assay: Time for maximum plasma concentration reached by compound was determined in rats at 50 mg/kg dose
Assay type: ADME, organism-based
Parameters: dose 50 mg/kg
Details: rat
property-label: Tmax (h)
Output spec: scalar in h, unitless text.

Looking up CO/N=C1\CN(c2nc3c(cc2F)c(=O)c(C(=O)O)cn3C2CC2)CC1CN (centres undefined) , I found its Tmax recorded as 1

Looking up `CO/N=C1\CN(c2c(F)c(N)c3c(=O)c(C(=O)O)cn(C4CC4)c3c2F)C[C@]1(C)CN.Cl` , I found its Tmax recorded as 1

Looking up `CO/N=C1\CN(c2nc3c(cc2F)c(=O)c(C(=O)O)cn3C2CC2)C[C@]1(C)CN.Cl` , I found its Tmax recorded as 2

Looking up `O=C(O)c1cn(C2CC2)c2cc(N3CCNCC3)c(F)cc2c1=O` , I found its Tmax recorded as 0.5

---

Test system: Staphylococcus aureus
Assay: In vitro antibacterial activity against the Methicillin-Resistant Staphylococcus aureus (MRSA) 701 E
Type: functional
property-label: MIC (µg/mL)
Output spec: scalar in µg/mL, unitless text.

Tested system Staphylococcus aureus; MIC recorded for `O=C(O)c1cn(C2CC2)c2cc(N3CCNCC3)c(F)cc2c1=O` was 0.391

Tested system Staphylococcus aureus; MIC recorded for CO/N=C1\CN(c2nc3c(cc2F)c(=O)c(C(=O)O)cn3C2CC2)CC1CN (configuration not stated) was 0.098

Tested system Staphylococcus aureus; MIC recorded for `CO/N=C1\CN(c2c(F)c(N)c3c(=O)c(C(=O)O)cn(C4CC4)c3c2F)C[C@@]1(C)CN.Cl` was 0.007

Tested system Staphylococcus aureus; MIC recorded for CO/N=C1\CN(c2nc3c(cc2F)c(=O)c(C(=O)O)cn3C2CC2)CC1(C)CN.Cl (configuration not stated) was 0.007

Tested system Staphylococcus aureus; MIC recorded for `CO/N=C1\CN(c2nc3c(cc2F)c(=O)c(C(=O)O)cn3C2CC2)C[C@@]1(C)CN.Cl` was 0.049

---

So I've got a bunch of compounds here, and I need their MIC values.
Test system: Streptococcus pyogenes
Assay: In vitro antibacterial activity against the Streptococcus pyogenes 77A
Format: functional
Output spec: scalar in µg/mL, unitless text.

Looking up CO/N=C1\CN(c2nc3c(cc2F)c(=O)c(C(=O)O)cn3C2CC2)CC1CN (stereo not drawn) , I found its MIC recorded as 0.025

Looking up CO/N=C1\CN(c2c(F)cc3c(=O)c(C(=O)O)cn(C4CC4)c3c2Cl)CC1(C)CN.Cl (stereo not drawn) , I found its MIC recorded as 0.025

Looking up CO/N=C1\CN(c2c(F)cc3c(=O)c(C(=O)O)cn(C4CC4)c3c2F)CC1(C)CN.Cl (stereo not drawn) , I found its MIC recorded as 0.025

Looking up `CO/N=C1\CN(c2nc3c(cc2F)c(=O)c(C(=O)O)cn3C2CC2)C[C@@]1(C)CN.Cl` , I found its MIC recorded as 0.098

Looking up `CO/N=C1\CN(c2nc3c(cc2F)c(=O)c(C(=O)O)cn3C2CC2)C[C@]1(C)CN.Cl` , I found its MIC recorded as 0.013

Looking up CC1(CN)CN(c2nc3c(cc2F)c(=O)c(C(=O)O)cn3C2CC2)C/C1=N/OCc1ccccc1.Cl (stereo not drawn) , I found its MIC recorded as 0.025

Looking up `CO/N=C1\CN(c2c(F)c(N)c3c(=O)c(C(=O)O)cn(C4CC4)c3c2F)C[C@@]1(C)CN.Cl` , I found its MIC recorded as 0.013

---

Tested on: Salmonella typhimurium
Experiment: In vitro antibacterial activity against the Salmonella Typhimurium
Type: functional, Salmonella enterica subsp. enterica serovar Typhimurium
Settings: Salmonella enterica
property-label: MIC
Remember to put the unit after the number in your answer.

Looking up CO/N=C1\CN(c2nc3c(cc2F)c(=O)c(C(=O)O)cn3C2CC2)CC1(C)CN.Cl (stereo not drawn) , I found its MIC recorded as 0.007 µg/mL

Looking up CC1(CN)CN(c2nc3c(cc2F)c(=O)c(C(=O)O)cn3C2CC2)C/C1=N/OCc1ccccc1.Cl (stereo not drawn) , I found its MIC recorded as 0.098 µg/mL

Looking up CO/N=C1\CN(c2c(F)cc3c(=O)c(C(=O)O)cn(C4CC4)c3c2Cl)CC1(C)CN.Cl (stereo not drawn) , I found its MIC recorded as 0.025 µg/mL

---

So I've got a bunch of compounds here, and I need their MIC values.
Tested on: Salmonella typhimurium
Experiment: In vitro antibacterial activity against the Salmonella Typhimurium
Format: functional, Salmonella enterica subsp. enterica serovar Typhimurium
Conditions: Salmonella enterica

Looking up `CO/N=C1\CN(c2c(F)c(N)c3c(=O)c(C(=O)O)cn(C4CC4)c3c2F)C[C@]1(C)CN.Cl` , I found its MIC recorded as < 2 ng/mL

Looking up `CO/N=C1\CN(c2c(F)c(N)c3c(=O)c(C(=O)O)cn(C4CC4)c3c2F)C[C@@]1(C)CN.Cl` , I found its MIC recorded as < 2 ng/mL

Looking up CO/N=C1\CN(c2c(F)c(N)c3c(=O)c(C(=O)O)cn(C4CC4)c3c2F)CC1(C)CN.Cl (stereo not drawn) , I found its MIC recorded as < 2 ng/mL
